All values here come from PubChem BioAssay AID2384.

- experimental-protocol: S. typhi counter-screen signal inhibition – fluorescence, 4 h, counter-screen for PhoP regulon inhibitor project, dose response (AID 2384)
- measurement-setup: S. typhi GFP reporter counter-screen; series mostly up to 150 µM
Out of some 2,300 compounds screened, about 1,100 (48%) were called active. The set was probably picked from earlier hits. This is one part of the list. Potency and affinity values are given separately.
value-kind: inhibition

compound	measured-value
CNC(=O)Nc1cccc(C(F)(F)F)c1	inactive
COc1ccc(C(=O)C[n+]2cc(Br)cc3ccccc32)cc1[N+](=O)[O-]	inactive
Nc1nc2n(n1)C(c1ccco1)CC(c1ccc(Cl)c(Cl)c1)N2 (stereo unspecified)	inactive
Cc1nc2ccc(NC(=O)c3cccc(C(F)(F)F)c3)cc2o1	inactive
COc1ccccc1C(=O)NNC1=C(C(=O)C(F)(F)F)CCC1	inactive

Exam item: Supply inhibition value. Item: CCOc1ccc(N2C(=O)CN(O)C=C3N=c4ccccc4=C32)cc1
Marked response: inactive
